# System: Cystic fibrosis transmembrane conductance regulator (Homo sapiens), P13569 [F508del]
# Sequence (P13569 as listed by the source): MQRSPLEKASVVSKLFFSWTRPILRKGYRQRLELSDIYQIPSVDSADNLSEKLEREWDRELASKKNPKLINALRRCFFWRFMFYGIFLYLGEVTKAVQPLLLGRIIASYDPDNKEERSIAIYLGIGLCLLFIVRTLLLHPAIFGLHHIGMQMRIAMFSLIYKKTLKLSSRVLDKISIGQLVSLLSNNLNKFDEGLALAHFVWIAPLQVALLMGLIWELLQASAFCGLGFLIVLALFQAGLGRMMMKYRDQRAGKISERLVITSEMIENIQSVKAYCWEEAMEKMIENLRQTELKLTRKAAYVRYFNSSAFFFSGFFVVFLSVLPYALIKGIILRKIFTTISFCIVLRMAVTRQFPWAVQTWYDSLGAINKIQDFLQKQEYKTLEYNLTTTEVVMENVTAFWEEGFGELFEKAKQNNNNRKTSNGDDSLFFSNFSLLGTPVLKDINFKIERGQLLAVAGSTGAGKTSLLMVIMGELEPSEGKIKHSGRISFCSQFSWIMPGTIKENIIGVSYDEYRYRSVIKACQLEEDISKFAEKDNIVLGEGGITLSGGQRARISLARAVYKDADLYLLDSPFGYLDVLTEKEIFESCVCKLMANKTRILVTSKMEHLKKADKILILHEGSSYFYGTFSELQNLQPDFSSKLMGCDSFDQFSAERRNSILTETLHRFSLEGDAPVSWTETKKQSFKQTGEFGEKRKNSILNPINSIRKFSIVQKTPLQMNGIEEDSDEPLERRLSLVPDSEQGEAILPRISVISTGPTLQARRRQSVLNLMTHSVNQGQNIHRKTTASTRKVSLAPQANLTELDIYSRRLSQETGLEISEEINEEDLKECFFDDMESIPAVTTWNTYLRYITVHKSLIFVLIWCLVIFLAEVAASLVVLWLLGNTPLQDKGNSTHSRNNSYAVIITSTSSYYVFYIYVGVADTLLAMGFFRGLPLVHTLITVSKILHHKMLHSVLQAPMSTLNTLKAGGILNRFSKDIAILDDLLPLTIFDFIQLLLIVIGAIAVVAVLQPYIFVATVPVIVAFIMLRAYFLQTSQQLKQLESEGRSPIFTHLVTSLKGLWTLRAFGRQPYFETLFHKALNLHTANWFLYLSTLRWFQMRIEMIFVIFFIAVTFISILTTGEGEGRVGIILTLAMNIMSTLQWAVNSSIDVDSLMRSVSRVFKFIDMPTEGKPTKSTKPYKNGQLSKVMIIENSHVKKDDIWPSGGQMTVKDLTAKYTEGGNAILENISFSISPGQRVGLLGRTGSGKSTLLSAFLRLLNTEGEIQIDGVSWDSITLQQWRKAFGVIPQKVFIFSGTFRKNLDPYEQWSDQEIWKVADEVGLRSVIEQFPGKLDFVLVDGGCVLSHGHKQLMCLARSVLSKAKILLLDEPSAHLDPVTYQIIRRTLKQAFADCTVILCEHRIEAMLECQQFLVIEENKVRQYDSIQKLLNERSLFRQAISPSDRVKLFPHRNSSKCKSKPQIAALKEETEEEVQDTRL
# protocol.summary: Corrector activity at forskolin-stimulated CFTR F508del mutant in human NHBE cells after 18 to 24 hrs in presence of […] by voltage-clamp based assay relative to ABBV-2222
# Assay type: cell-based
readout.label: Emax (%)

Challenge: # Emax lookup, item COc1ncc(C(F)(F)F)cc1CO[C@H]1[C@H](C(C)(C)C)[C@@H](C(=O)O)N(C(=O)[C@@H]2CCCCO2)[C@H]1c1ccccc1C1CC1
Response given: 610

I. COc1ccc(C(F)(F)F)cc1CO[C@H]1[C@H](C(C)(C)C)[C@@H](C(=O)O)N(C(=O)C2CCCCC2)[C@H]1c1ccccc1
II. COc1ncc(C2CCCC2)cc1CO[C@H]1[C@H](C(C)(C)C)[C@@H](C(=O)O)N(C(=O)C2CCCCC2)[C@H]1c1ccccc1
III. COc1ncc(C(F)(F)F)cc1CO[C@H]1[C@H](C(C)(C)C)[C@@H](C(=O)O)N(C(=O)[C@H]2CCCCO2)[C@H]1c1ccccc1
Challenge: I would appreciate it if you could sort these 3 compounds by Emax, starting from the smallest number. Give me the labels in the order the question wants.
Response given: II, III, I
(II: 203%, III: 351%, I: 590%)
